target: HiBit-WIZ fusion protein (Homo sapiens, UniProt O95785+Q96SW2); assay: Quantification of WIZ protein levels in HiBit tag fusion protein assay (WIZ HiBit assay in 293T cells); type: cell-based; parameters: dose or concentration left out as unconfirmed; conditions: HEK-293T, 100 minus Amax; 293T cells; read-out: % degradation of WIZ (100-Amax)
Sequence (O95785 whole entry, the tested form may be a part): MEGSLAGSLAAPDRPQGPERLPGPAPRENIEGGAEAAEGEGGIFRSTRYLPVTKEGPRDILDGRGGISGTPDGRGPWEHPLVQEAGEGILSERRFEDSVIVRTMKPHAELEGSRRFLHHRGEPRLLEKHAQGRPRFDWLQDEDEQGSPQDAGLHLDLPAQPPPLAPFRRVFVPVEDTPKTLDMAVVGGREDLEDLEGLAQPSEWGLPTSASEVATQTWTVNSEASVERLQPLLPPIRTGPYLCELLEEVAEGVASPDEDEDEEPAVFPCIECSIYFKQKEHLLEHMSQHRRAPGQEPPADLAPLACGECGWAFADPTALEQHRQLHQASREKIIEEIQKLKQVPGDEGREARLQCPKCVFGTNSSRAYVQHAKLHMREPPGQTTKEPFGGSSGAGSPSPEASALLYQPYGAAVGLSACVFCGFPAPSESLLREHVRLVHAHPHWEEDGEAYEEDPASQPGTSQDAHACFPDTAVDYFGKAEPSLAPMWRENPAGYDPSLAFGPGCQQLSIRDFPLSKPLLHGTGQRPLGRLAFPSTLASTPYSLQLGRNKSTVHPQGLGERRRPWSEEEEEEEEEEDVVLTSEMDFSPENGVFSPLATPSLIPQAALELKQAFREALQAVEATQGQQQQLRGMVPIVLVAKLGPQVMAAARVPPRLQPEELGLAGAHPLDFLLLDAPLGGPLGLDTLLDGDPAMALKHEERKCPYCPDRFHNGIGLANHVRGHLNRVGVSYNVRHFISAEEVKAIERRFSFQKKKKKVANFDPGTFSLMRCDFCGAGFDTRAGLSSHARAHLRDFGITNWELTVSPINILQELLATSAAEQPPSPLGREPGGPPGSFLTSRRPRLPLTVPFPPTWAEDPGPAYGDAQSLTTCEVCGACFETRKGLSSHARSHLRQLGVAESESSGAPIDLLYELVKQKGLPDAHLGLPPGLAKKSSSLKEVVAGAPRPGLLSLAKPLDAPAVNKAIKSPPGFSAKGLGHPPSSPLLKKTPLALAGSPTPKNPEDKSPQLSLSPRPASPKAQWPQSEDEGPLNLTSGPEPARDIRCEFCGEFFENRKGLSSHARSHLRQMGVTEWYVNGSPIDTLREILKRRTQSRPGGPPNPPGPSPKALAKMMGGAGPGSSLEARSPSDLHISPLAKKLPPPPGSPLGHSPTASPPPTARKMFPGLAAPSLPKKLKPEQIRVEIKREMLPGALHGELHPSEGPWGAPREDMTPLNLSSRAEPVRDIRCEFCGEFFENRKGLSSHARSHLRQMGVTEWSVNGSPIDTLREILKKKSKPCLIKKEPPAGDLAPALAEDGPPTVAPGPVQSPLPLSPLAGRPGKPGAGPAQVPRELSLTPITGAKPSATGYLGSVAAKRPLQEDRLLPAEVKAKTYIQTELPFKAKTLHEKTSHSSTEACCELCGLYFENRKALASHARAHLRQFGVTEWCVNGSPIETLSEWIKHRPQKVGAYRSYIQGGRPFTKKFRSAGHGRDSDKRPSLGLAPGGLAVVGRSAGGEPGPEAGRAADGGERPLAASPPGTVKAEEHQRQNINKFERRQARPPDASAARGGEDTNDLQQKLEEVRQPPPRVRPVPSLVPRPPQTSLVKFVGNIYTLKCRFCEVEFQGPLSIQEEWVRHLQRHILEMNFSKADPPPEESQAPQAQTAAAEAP
Sequence (Q96SW2 whole entry, the tested form may be a part): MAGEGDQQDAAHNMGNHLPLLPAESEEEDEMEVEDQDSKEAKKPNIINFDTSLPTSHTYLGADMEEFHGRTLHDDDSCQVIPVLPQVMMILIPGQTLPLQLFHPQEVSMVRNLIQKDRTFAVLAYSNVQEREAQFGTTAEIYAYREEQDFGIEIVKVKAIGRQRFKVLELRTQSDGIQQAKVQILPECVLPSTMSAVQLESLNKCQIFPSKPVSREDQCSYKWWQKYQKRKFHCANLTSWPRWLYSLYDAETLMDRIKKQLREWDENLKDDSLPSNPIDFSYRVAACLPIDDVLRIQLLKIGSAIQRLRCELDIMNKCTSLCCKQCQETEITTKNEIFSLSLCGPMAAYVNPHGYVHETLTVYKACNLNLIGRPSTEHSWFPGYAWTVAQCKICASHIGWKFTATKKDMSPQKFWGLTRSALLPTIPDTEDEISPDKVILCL
Sequence (Q16531 whole entry partner, the tested form may be a part): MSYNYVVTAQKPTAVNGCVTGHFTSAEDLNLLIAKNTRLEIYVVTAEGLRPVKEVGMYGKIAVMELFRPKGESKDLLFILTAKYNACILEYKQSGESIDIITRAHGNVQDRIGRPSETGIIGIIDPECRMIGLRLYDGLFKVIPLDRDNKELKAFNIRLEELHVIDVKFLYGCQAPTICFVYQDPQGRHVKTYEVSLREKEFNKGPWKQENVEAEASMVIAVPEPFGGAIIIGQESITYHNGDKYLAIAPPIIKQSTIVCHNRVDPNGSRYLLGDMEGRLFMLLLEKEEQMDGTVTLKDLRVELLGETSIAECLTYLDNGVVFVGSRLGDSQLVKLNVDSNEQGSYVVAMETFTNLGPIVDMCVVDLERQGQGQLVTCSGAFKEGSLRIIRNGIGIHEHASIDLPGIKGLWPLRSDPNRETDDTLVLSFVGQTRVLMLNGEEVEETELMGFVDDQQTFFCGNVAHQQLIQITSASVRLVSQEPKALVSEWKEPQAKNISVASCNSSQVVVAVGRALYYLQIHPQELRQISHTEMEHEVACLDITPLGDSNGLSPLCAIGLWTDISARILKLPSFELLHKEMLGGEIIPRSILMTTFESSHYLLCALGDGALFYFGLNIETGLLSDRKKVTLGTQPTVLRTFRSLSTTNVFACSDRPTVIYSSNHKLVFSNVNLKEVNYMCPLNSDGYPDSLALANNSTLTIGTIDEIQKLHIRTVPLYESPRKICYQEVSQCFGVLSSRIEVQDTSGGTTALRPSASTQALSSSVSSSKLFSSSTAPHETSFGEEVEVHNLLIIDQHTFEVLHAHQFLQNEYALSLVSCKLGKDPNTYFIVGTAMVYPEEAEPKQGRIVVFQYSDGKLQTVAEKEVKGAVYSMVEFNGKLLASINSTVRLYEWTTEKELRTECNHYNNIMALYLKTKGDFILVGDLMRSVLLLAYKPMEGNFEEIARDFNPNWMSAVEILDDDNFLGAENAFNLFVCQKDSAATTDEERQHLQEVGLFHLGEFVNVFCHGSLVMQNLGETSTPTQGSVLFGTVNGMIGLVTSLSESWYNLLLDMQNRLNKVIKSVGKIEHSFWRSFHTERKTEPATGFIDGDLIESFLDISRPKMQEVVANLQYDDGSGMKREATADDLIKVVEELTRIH
Binned Dmax; ranges: range 1: < 40%; range 2: ≥ 40% and < 80%; range 3: ≥ 80%

Task item: Class for O=C1CCC(N2Cc3cc(OC[C@@H]4CCCCN4Cc4ccnc(O)c4)ccc3C2=O)C(=O)N1 (stereo partly shown) [Compound I-50cv] ?
Reply: range 2

Task item: Class for O=C1CCC(N2Cc3cc(OC[C@@H]4CCCCN4Cc4n[nH]c5ccc(Oc6cccnc6)cc45)ccc3C2=O)C(=O)N1 (stereo partly shown) [Compound I-50af] ?
Reply: range 2

Task item: Class for O=C1CCC(N2Cc3cc(OC[C@H]4CCCCN4Cc4ccccc4N4CCCCC4)ccc3C2=O)C(=O)N1 (stereo partly shown) ?
Reply: range 3

Task item: Class for N#Cc1ccc(CCC(=O)N2CCCC[C@H]2COc2ccc3c(c2)CN(C2CCC(=O)NC2=O)C3=O)cc1 (stereo partly shown) [Compound I-72gh] ?
Reply: range 1

Task item: Class for O=C1CCC(N2Cc3cc(OC[C@@H]4CCCCN4C(=O)c4cccc(N5CCCC5=O)c4)ccc3C2=O)C(=O)N1 (stereo partly shown) [Compound I-72hf] ?
Reply: range 1

Task item: Class for O=C1CCC(N2Cc3cc(OC[C@H]4CCCCN4Cc4ccc[nH]c4=O)ccc3C2=O)C(=O)N1 (stereo partly shown) [Compound I-50dp] ?
Reply: range 2

Task item: Class for O=C1CCC(N2Cc3cc(OC[C@@H]4CCCCN4C(=O)CCC(=O)N4CCOCC4)ccc3C2=O)C(=O)N1 (stereo partly shown) [Compound I-72eo] ?
Reply: range 1

Task item: Class for COC12CC(CN3CCCC[C@@H]3COc3ccc4c(c3)CN(C3CCC(=O)NC3=O)C4=O)(C1)C2 (stereo partly shown) ?
Reply: range 2

Task item: Class for O=C1CCC(N2Cc3cc(OC[C@H]4CCCCN4Cc4c[nH]cn4)ccc3C2=O)C(=O)N1 (stereo partly shown) [Compound I-50ds] ?
Reply: range 2

Task item: Class for O=C1CCC(N2Cc3cc(OC[C@H]4CCCCN4Cc4ccnc5[nH]ccc45)ccc3C2=O)C(=O)N1 (stereo partly shown) [Compound I-50dk] ?
Reply: range 3

Task item: Class for N#Cc1cccc(Cn2cccc(CN3CCCC[C@H]3COc3ccc4c(c3)CN(C3CCC(=O)NC3=O)C4=O)c2=O)c1 (stereo partly shown) [Compound I-50aw] ?
Reply: range 1

Task item: Class for COc1cc2[nH]nc(CN3CCCC[C@H]3COc3ccc4c(c3)CN(C3CCC(=O)NC3=O)C4=O)c2cc1OCc1ccccc1 (stereo partly shown) [Compound I-50ae] ?
Reply: range 2

Task item: Class for CCOC(=O)c1cccc2[nH]nc(CN3CCCC[C@@H]3COc3ccc4c(c3)CN(C3CCC(=O)NC3=O)C4=O)c12 (stereo partly shown) [Compound I-50er] ?
Reply: range 3

Task item: Class for Cc1cc(CN2CCCC[C@H]2COc2ccc3c(c2)CN(C2CCC(=O)NC2=O)C3=O)no1 (stereo partly shown) [Compound I-50by] ?
Reply: range 1

Task item: Class for O=C1CCC(N2Cc3cc(OC[C@H]4CCCCN4Cc4cccc(F)c4O)ccc3C2=O)C(=O)N1 (stereo partly shown) ?
Reply: range 1

Task item: Class for CC(C)Cn1cc(CN2CCCC[C@H]2COc2ccc3c(c2)CN(C2CCC(=O)NC2=O)C3=O)cn1 (stereo partly shown) [Compound I-50ci] ?
Reply: range 3

Task item: Class for O=C1CCC(N2Cc3cc(OC[C@H]4CCCCN4Cc4ccccc4N4CCOCC4)ccc3C2=O)C(=O)N1 (stereo partly shown) ?
Reply: range 3

Task item: Class for COc1cc(C(=O)N2CCCC[C@H]2COc2ccc3c(c2)CN(C2CCC(=O)NC2=O)C3=O)c(F)cn1 (stereo partly shown) [Compound I-72gn] ?
Reply: range 1

Task item: Class for O=C1CCC(N2Cc3cc(OC[C@@H]4CCCCN4Cc4ccccc4OCCN4CCOCC4)ccc3C2=O)C(=O)N1 (stereo partly shown) [Compound I-50ab] ?
Reply: range 2

Task item: Class for CC(C)Oc1ccccc1C(=O)N1CCCC[C@H]1COc1ccc2c(c1)CN(C1CCC(=O)NC1=O)C2=O (stereo partly shown) [Compound I-72jy] ?
Reply: range 1

Task item: Class for COc1cc(OC)nc(C(=O)N2CCCC[C@H]2COc2ccc3c(c2)CN(C2CCC(=O)NC2=O)C3=O)n1 (stereo partly shown) [Compound I-72is] ?
Reply: range 1

Task item: Class for O=C1CCC(N2Cc3cc(OC[C@H]4CCCCN4Cc4cccn5ccnc45)ccc3C2=O)C(=O)N1 (stereo partly shown) [Compound I-50ca] ?
Reply: range 2

Task item: Class for O=C1CCC(N2Cc3cc(OC[C@H]4CCCCN4Cc4ccnc(N5CCOCC5)c4)ccc3C2=O)C(=O)N1 (stereo partly shown) [Compound I-50dr] ?
Reply: range 3

###

Would you mind telling me the reported Dmax of each entry?
target: HiBit-WIZ fusion protein (Homo sapiens, UniProt O95785+Q96SW2); experiment: Quantification of WIZ protein levels in HiBit tag fusion protein assay (WIZ HiBit assay in 293T cells); assay type: cell-based; design: dose or concentration left out as unconfirmed; settings: HEK-293T, 100 minus Amax; 293T cells; read-out: % degradation of WIZ (100-Amax)
Provide only the numeric value, understood in %.

Task item: Let me know recorded Dmax for O=C1CCC(N2Cc3cc(OC[C@@H]4CC(F)(F)CN4)ccc3C2=O)C(=O)N1 (stereo partly shown) [Compound I-84] , thanks.
Reply: 21.2

Task item: Let me know recorded Dmax for O=C1CCC(N2Cc3cc(OC[C@H]4CCCCN4Cc4ccc(F)cc4Cl)ccc3C2=O)C(=O)N1 (stereo partly shown) [Compound I-114] , thanks.
Reply: 94.5

Task item: Let me know recorded Dmax for CC(C)(C)c1cc(CC(=O)N2CCCC[C@H]2COc2ccc3c(c2)CN(C2CCC(=O)NC2=O)C3=O)on1 (stereo partly shown) [Compound I-72hj] , thanks.
Reply: 0.7

Task item: Let me know recorded Dmax for CC(C)c1cc(C(=O)N2CCCC[C@H]2COc2ccc3c(c2)CN(C2CCC(=O)NC2=O)C3=O)n(C)n1 (stereo partly shown) [Compound I-72gd] , thanks.
Reply: 80.1

Task item: Let me know recorded Dmax for CC(C)CN1CCN(c2ccccc2CN2CCCC[C@@H]2COc2ccc3c(c2)CN(C2CCC(=O)NC2=O)C3=O)CC1 (stereo partly shown) [Compound I-107] , thanks.
Reply: 99.8

Task item: Let me know recorded Dmax for O=C1CCC(N2Cc3cc(OC[C@@H]4CCCCN4C(=O)C4CCCOC4)ccc3C2=O)C(=O)N1 (stereo partly shown) [Compound I-72gj] , thanks.
Reply: 2.3

Task item: Let me know recorded Dmax for Cn1nccc1-c1cccc(C(=O)N2CCCC[C@H]2COc2ccc3c(c2)CN(C2CCC(=O)NC2=O)C3=O)c1 (stereo partly shown) [Compound I-72gz] , thanks.
Reply: 13.7

###

Would you mind telling me the reported remaining activity at up to 25 µM of each entry?
target: HiBit-WIZ fusion protein (Homo sapiens, UniProt O95785+Q96SW2); experiment: Quantification of WIZ protein levels in HiBit tag fusion protein assay (WIZ HiBit assay in 293T cells); assay type: cell-based; conditions: HEK-293T, DMSO-normalized, curve-fitted percentage of WIZ-HiBit remaining at 25 uM; 293T cells; read-out: WIZ Amax
Don't forget the unit after the value.

Task item: Let me know recorded remaining activity at up to 25 µM for CCc1cc(CN2CCCC[C@@H]2COc2ccc3c(c2)CN(C2CCC(=O)NC2=O)C3=O)ccc1C1CCN(C(=O)OC(C)(C)C)CC1 (stereo partly shown) [Compound I-155] , thanks.
Reply: 24.9%

Task item: Let me know recorded remaining activity at up to 25 µM for COC(=O)c1ccc(Oc2ccc(CN3CCCC[C@@H]3COc3ccc4c(c3)CN(C3CCC(=O)NC3=O)C4=O)cc2)cc1 (stereo partly shown) [Compound I-50bh] , thanks.
Reply: 0.1%

Task item: Let me know recorded remaining activity at up to 25 µM for O=C1CCC(N2Cc3cc(OC[C@H]4CCCCN4Cc4cccc(F)c4O)ccc3C2=O)C(=O)N1 (stereo partly shown) [Compound I-143] , thanks.
Reply: 62.6%

Task item: Let me know recorded remaining activity at up to 25 µM for O=C1CCC(N2Cc3cc(OC[C@H]4CCCCN4Cc4cn[nH]c4)ccc3C2=O)C(=O)N1 (stereo partly shown) [Compound I-50an] , thanks.
Reply: 17.8%

Task item: Let me know recorded remaining activity at up to 25 µM for O=C1CCC(N2Cc3cc(OC[C@H]4CCCCN4Cc4cccc(Cn5cccn5)c4)ccc3C2=O)C(=O)N1 (stereo partly shown) [Compound I-50en] , thanks.
Reply: 0.2%

Task item: Let me know recorded remaining activity at up to 25 µM for N#Cc1cc(CN2CCCC[C@H]2COc2ccc3c(c2)CN(C2CCC(=O)NC2=O)C3=O)ccn1 (stereo partly shown) [Compound I-50bl] , thanks.
Reply: 82.4%

Task item: Let me know recorded remaining activity at up to 25 µM for O=C1CCC(N2Cc3cc(OC[C@H]4CCCCN4Cc4cnn(C5CCCCC5)c4)ccc3C2=O)C(=O)N1 (stereo partly shown) [Compound I-50ec] , thanks.
Reply: 0%
